Answer each item with its documented Population Healthy Nuclei (%).
System: HEK-293T
Test: Multiplex assay against HEK293T
Type: toxicity, cell-based
Conditions: human, 12 h, 1 µM, compound concentration 1 uM, replicate 2
Write it as a number; the unit % goes unstated.

Input: Please supply the value of reported Population Healthy Nuclei (%) for the item O=c1nc2[nH]c3ccccc3nc-2c(=O)[nH]1
Output: 79

Input: Please supply the value of reported Population Healthy Nuclei (%) for the item CN1CCN(c2ccc(Nc3c4ccccc4nc4ccccc34)cc2)CC1.Cl.Cl.O
Output: 90

Input: Please supply the value of reported Population Healthy Nuclei (%) for the item CCCCC[C@H](O)/C=C/[C@H]1[C@H](O)CC(=O)[C@@H]1CCCCCCC(=O)O
Output: 80

Input: Please supply the value of reported Population Healthy Nuclei (%) for the item CCc1nn2c(C)cc(C)nc2c1Cc1ccc(-c2nnc(C3CCNCC3)o2)cc1
Output: 78

Input: Please supply the value of reported Population Healthy Nuclei (%) for the item CCC(=O)OCC(=O)[C@@]1(OC(=O)CC)[C@@H](C)C[C@H]2[C@@H]3CCC4=CC(=O)C=C[C@]4(C)[C@@]3(Cl)[C@@H](O)C[C@@]21C [BECLOMETHASONE DIPROPIONATE]
Output: 74

Input: Please supply the value of reported Population Healthy Nuclei (%) for the item CN1C[C@H](C(=O)N[C@]2(C)O[C@@]3(O)[C@@H]4CCCN4C(=O)[C@H](Cc4ccccc4)N3C2=O)C[C@@H]2c3cccc4[nH]cc(c34)C[C@H]21.CS(=O)(=O)O [DIHYDROERGOTAMINE MESYLATE]
Output: 81

Input: Please supply the value of reported Population Healthy Nuclei (%) for the item OCCCNc1cc(-c2ccnc(Nc3cccc(Cl)c3)n2)ccn1
Output: 74

Input: Please supply the value of reported Population Healthy Nuclei (%) for the item Cc1cc(NC(=O)NCCN2CCC(O)(Cc3ccccc3)CC2)c2ccccc2n1
Output: 81

Input: Please supply the value of reported Population Healthy Nuclei (%) for the item CCCCCCNC(=O)Nc1ccc(S(=O)(=O)Nc2ccc(CCNC[C@H](O)COc3ccc(O)cc3)cc2)cc1
Output: 83

Input: Please supply the value of reported Population Healthy Nuclei (%) for the item Cc1cc(=O)n(C)c2cc(N3C(=O)CC[C@H](NS(=O)(=O)CC(C)C)[C@H]3c3ccc(Cl)cc3)ccc12
Output: 78

Input: Please supply the value of reported Population Healthy Nuclei (%) for the item COCCCN1CCC(NC(=O)c2cc(Cl)c(N)c3c2OCC3)CC1 [PRUCALOPRIDE]
Output: 82

Input: Please supply the value of reported Population Healthy Nuclei (%) for the item CC(C)(C)c1ccc(CSc2cnn(C(C)(C)C)c(=O)c2Cl)cc1
Output: 83

Input: Please supply the value of reported Population Healthy Nuclei (%) for the item Cc1nn(C)c2nc(NNC(=O)Nc3cc(Cl)nc(Cl)c3)cc(C(C)C)c12
Output: 81

Input: Please supply the value of reported Population Healthy Nuclei (%) for the item CN(C)C(=O)Cn1cc(-c2ccc(-c3nnc4ccccn34)cc2)cn1
Output: 79

Input: Please supply the value of reported Population Healthy Nuclei (%) for the item CCn1c(-c2nc3cc(C(=O)N4CCCC(N)C4)ccc3n2C)cc2ccccc21.Cl (configuration not stated)
Output: 81

Input: Please supply the value of reported Population Healthy Nuclei (%) for the item CC(C)(O)C(=O)N1CCN(c2ccc(C(F)(F)F)c(C3=C(c4c[nH]c5ccccc45)C(=O)NC3=O)c2)CC1
Output: 76

Input: Please supply the value of reported Population Healthy Nuclei (%) for the item S=C(NCCCc1c[nH]cn1)NCCCN(Cc1ccc(Cl)c(Cl)c1)c1ccc(Br)cn1
Output: 79

###

Test system: U2OS
Assay: Multiplex assay against U2OS
Type: toxicity, cell-based
Conditions: human, 24 h, 1 µM, compound concentration 1 uM, replicate 2
Would you mind sorting the entries by Population Tubulin-Different-Phenotype (%) according to these classes? low = under 3%, mid = from 3% up to 6%, high = 6% and over

Input: Kindly state the category for this compound: CCn1c(-c2nc3cc(C(=O)N4CCCC(N)C4)ccc3n2C)cc2ccccc21.Cl (configuration not stated)
Output: high

Input: Kindly state the category for this compound: N[C@](CC1c2ccccc2Oc2ccccc21)(C(=O)O)[C@H]1C[C@@H]1C(=O)O
Output: low

Input: Kindly state the category for this compound: COc1c(Nc2ccc(S(C)(=O)=O)nc2C)ncnc1OC1CCN(C(=O)OC(C)C)CC1
Output: mid

Input: Kindly state the category for this compound: CN1CCC(C(=O)c2cccc(NC(=O)c3c(F)cc(F)cc3F)n2)CC1
Output: low

Input: Kindly state the category for this compound: CN(C)C/C=C/C(=O)Nc1ccc(C(=O)N2CCCC(Nc3ncc(Cl)c(-c4c[nH]c5ccccc45)n3)C2)cc1 (configuration not stated)
Output: mid

Input: Kindly state the category for this compound: C[C@H](NC(=O)CNC(=O)c1cccc(Cl)c1)c1ccccc1
Output: low

Input: Kindly state the category for this compound: Nc1nc(-c2ccco2)c2cnn(Cc3ccccc3F)c2n1
Output: high

Input: Kindly state the category for this compound: C[C@@H]1CC(=O)Nc2cccc(-c3ccc4c(c3)c(-c3cnn(C)c3)nn4C)c2N1
Output: low

Input: Kindly state the category for this compound: CCCCCCNC(=O)Nc1ccc(S(=O)(=O)Nc2ccc(CCNC[C@H](O)COc3ccc(O)cc3)cc2)cc1
Output: mid

Input: Kindly state the category for this compound: COc1cc2nc(N3CCN(C(=O)c4ccco4)CC3)nc(N)c2cc1OC.Cl [PRAZOSIN HYDROCHLORIDE]
Output: high

Input: Kindly state the category for this compound: COc1cc2nc(N3CCN(C(=O)COc4c(OC)cccc4C(C)C)CC3)nc(N)c2cc1OC.Cl.Cl
Output: mid

Input: Kindly state the category for this compound: Cc1cc(O)c(-c2ccc([C@@H](C)CN(C)C)cc2)c2c1[nH]c(=O)c1sccc12
Output: high

###

Answer each item with its documented Population Mitochondria Different-Phenotype (%).
System: HEK-293T
Assay: Multiplex assay against HEK293T
Type: toxicity, cell-based
Settings: human, 24 h, 1 µM, compound concentration 1 uM, replicate 1
Write it as a number; the unit % goes unstated.

Input: Please supply the value of reported Population Mitochondria Different-Phenotype (%) for the item CCc1nn2c(C)cc(C)nc2c1Cc1ccc(-c2nnc(C3CCNCC3)o2)cc1
Output: 36

Input: Please supply the value of reported Population Mitochondria Different-Phenotype (%) for the item Nc1nc(CC(=O)Nc2ccc(CCNC[C@H](O)c3ccccc3)cc2)cs1
Output: 30

Input: Please supply the value of reported Population Mitochondria Different-Phenotype (%) for the item Cc1cc(=O)n(C)c2cc(N3C(=O)CC[C@H](NS(=O)(=O)CC(C)C)[C@H]3c3ccc(Cl)cc3)ccc12
Output: 25

Input: Please supply the value of reported Population Mitochondria Different-Phenotype (%) for the item CCn1c(-c2nc3cc(C(=O)N4CCCC(N)C4)ccc3n2C)cc2ccccc21.Cl (stereo not drawn)
Output: 37

Input: Please supply the value of reported Population Mitochondria Different-Phenotype (%) for the item Cc1cc(O)c(-c2ccc([C@@H](C)CN(C)C)cc2)c2c1[nH]c(=O)c1sccc12
Output: 89

Input: Please supply the value of reported Population Mitochondria Different-Phenotype (%) for the item C=CCN1C[C@H](C(=O)N(CCCN(C)C)C(=O)NCC)C[C@@H]2c3cccc4[nH]cc(c34)C[C@H]21
Output: 29

Input: Please supply the value of reported Population Mitochondria Different-Phenotype (%) for the item CCC(=O)OCC(=O)[C@@]1(OC(=O)CC)[C@@H](C)C[C@H]2[C@@H]3CCC4=CC(=O)C=C[C@]4(C)[C@@]3(Cl)[C@@H](O)C[C@@]21C [BECLOMETHASONE DIPROPIONATE]
Output: 40

Input: Please supply the value of reported Population Mitochondria Different-Phenotype (%) for the item CSc1nc(NC2CCCC2)c([N+](=O)[O-])c(NC2CCCC2)n1
Output: 25

Input: Please supply the value of reported Population Mitochondria Different-Phenotype (%) for the item CCCCCCNC(=O)Nc1ccc(S(=O)(=O)Nc2ccc(CCNC[C@H](O)COc3ccc(O)cc3)cc2)cc1
Output: 20

Input: Please supply the value of reported Population Mitochondria Different-Phenotype (%) for the item C[C@@H]1CC(=O)Nc2cccc(-c3ccc4c(c3)c(-c3cnn(C)c3)nn4C)c2N1
Output: 37

Input: Please supply the value of reported Population Mitochondria Different-Phenotype (%) for the item O=C(O)CCC/C=C\CC1C(O)CC(O)C1/C=C/C(O)COc1cccc(Cl)c1 (stereo not drawn)
Output: 25

Input: Please supply the value of reported Population Mitochondria Different-Phenotype (%) for the item COCCCN1CCC(NC(=O)c2cc(Cl)c(N)c3c2OCC3)CC1 [PRUCALOPRIDE]
Output: 18

Input: Please supply the value of reported Population Mitochondria Different-Phenotype (%) for the item Cc1nn(C)c2nc(NNC(=O)Nc3cc(Cl)nc(Cl)c3)cc(C(C)C)c12
Output: 27
